Hello, the source for this data is ChEMBL document CHEMBL1142894, in case you need it.

Tested on: Mus musculus
Assay protocol: Inhibition of carrageenan-induced paw edema in Swiss albino mouse at 100 mg/kg, po after 360 mins relative to control
Assay type: functional
Condition parameters: 6 h
Result type: inhibition in vivo at 100 mg/kg (%)
Report as a plain number; the unit % is understood.

>  <Mol>
COc1ccc2c(c1)c(CC(=O)O)c(C)n2C(=O)c1ccc(Cl)cc1

>  <System under test>
Mus musculus

>  <Numeric value>
42.3

$$$$
>  <Mol>
CCS(=O)(=O)c1nc(-c2ccc(Cl)cc2)n[nH]1

>  <System under test>
Mus musculus

>  <Numeric value>
48.7

$$$$

For the next question, use this compound.
Query: Any idea what its inhibition in vivo at 100 mg/kg is? The compound is CSc1nc(-c2ccccc2Cl)n[nH]1
Reply: 17.2

* * *

Tested on: Mus musculus
Assay protocol: Inhibition of p-benzoquinone-induced writhing in Swiss albino mouse at 200 mg/kg, po relative to control
Format: functional
Form field: inhibition in vivo at 200 mg/kg (one value per entry).
Report as a plain number; the unit % is understood.

Known inhibition in vivo at 200 mg/kg results, listed for orientation:
>  <Mol>
CC(=O)Oc1ccccc1C(=O)O

>  <System under test>
Mus musculus

>  <inhibition in vivo at 200 mg/kg [%]>
53.6

$$$$
>  <Mol>
CCS(=O)(=O)c1nc(-c2ccc(Br)cc2)n[nH]1

>  <System under test>
Mus musculus

>  <inhibition in vivo at 200 mg/kg [%]>
1.6

$$$$

For the next question, use this molecule.
Query: Any idea what its inhibition in vivo at 200 mg/kg is? The molecule is CCS(=O)(=O)c1nc(-c2ccccc2Cl)n[nH]1
Reply: 10.7

* * *

Form field: inhibition in vivo at 200 mg/kg (one value per entry).
System: Mus musculus
Assay protocol: Inhibition of carrageenan-induced paw edema in Swiss albino mouse at 200 mg/kg, po after 270 mins relative to control
Format: functional
Condition parameters: 4.5 h

Known inhibition in vivo at 200 mg/kg results, listed for orientation:
>  <Mol>
CS(=O)(=O)c1nc(-c2ccccc2Cl)n[nH]1

>  <System under test>
Mus musculus

>  <inhibition in vivo at 200 mg/kg>
7.7%

$$$$
>  <Mol>
CCS(=O)(=O)c1nc(-c2ccc(Cl)cc2)n[nH]1

>  <System under test>
Mus musculus

>  <inhibition in vivo at 200 mg/kg>
14.5%

$$$$

Query: Any idea what its inhibition in vivo at 200 mg/kg is? The compound is CCSc1nc(-c2ccc(Cl)cc2)n[nH]1
Reply: 2%
